Tested on: P388
procedureText: In vivo antileukemic activity against P388 leukemia at dose 12.5 mp/kg administered intraperitoneally
Type: functional, Mus musculus

{"substanceSmiles": "O=c1c2cc(O)ccc2n2nnc3ccc(NCCNCCO)c1c32", "measuredTarget": "P388", "T/C (%)": 210}
{"substanceSmiles": "CCN(CC)CCNc1ccc2nnn3c4ccc([N+](=O)[O-])cc4c(=O)c1c23", "measuredTarget": "P388", "T/C (%)": 122}
{"substanceSmiles": "COc1ccc2c(c1)c(=O)c1c(NCCNCCO)ccc3nnn2c31", "measuredTarget": "P388", "T/C (%)": 120}
{"substanceSmiles": "CCN(CC)CCNc1ccc2nnn3c4ccc(OC)cc4c(=O)c1c23", "measuredTarget": "P388", "T/C (%)": 120}
{"substanceSmiles": "CCN(CC)CCNc1ccc2nnn3c4ccc(Cl)cc4c(=O)c1c23", "measuredTarget": "P388", "T/C (%)": 111}

###

Test system: P388
procedureText: In vivo antileukemic activity against P388 leukemia at dose 100 mp/kg administered intraperitoneally
Format: functional, Mus musculus
Quick list: T/C per entry.
parameterMeasured: T/C (%)

{"substanceSmiles": "CN(C)CCCNc1ccc2nnn3c4ccccc4c(=O)c1c23", "parameterMeasured": "T/C", "reportedValue": 133}
{"substanceSmiles": "CN(C)CCNc1ccc2nnn3c4ccccc4c(=O)c1c23", "parameterMeasured": "T/C", "reportedValue": 180}
{"substanceSmiles": "CCN(CC)CCNc1ccc2nnn3c4ccccc4c(=O)c1c23", "parameterMeasured": "T/C", "reportedValue": 160}
{"substanceSmiles": "Cc1ccc2c(c1)c(=O)c1c(NCCN(C)C)ccc3nnn2c31", "parameterMeasured": "T/C", "reportedValue": 130}

###

Test system: P388
procedureText: In vivo antileukemic activity against P388 leukemia at dose 25 mp/kg administered intraperitoneally
Assay type: functional, Mus musculus
parameterMeasured: T/C (%)

{"substanceSmiles": "O=c1c2cc([N+](=O)[O-])ccc2n2nnc3ccc(NCCNCCO)c1c32", "reportedValue": 133}
{"substanceSmiles": "CN(C)CCCNc1ccc2nnn3c4ccc([N+](=O)[O-])cc4c(=O)c1c23", "reportedValue": 110}
{"substanceSmiles": "CN(C)CCNc1ccc2nnn3c4ccc(Cl)cc4c(=O)c1c23", "reportedValue": 110}
{"substanceSmiles": "O=c1c2cc(Cl)ccc2n2nnc3ccc(NCCNCCO)c1c32", "reportedValue": 133}
{"substanceSmiles": "COc1ccc2c(c1)c(=O)c1c(NCCN(C)C)ccc3nnn2c31", "reportedValue": 110}
{"substanceSmiles": "CN(C)CCNc1ccc2nnn3c4ccc([N+](=O)[O-])cc4c(=O)c1c23", "reportedValue": 130}
